# EXPERIMENT: GLP 28-day repeat oral dose toxicity and toxicokinetics, monkey
# Type: in vivo
# CONDITION_PARAMETERS: in vivo, po; Monkey Female; 10 mg/kg/day, daily dosing for 28 days
RECORDED_METRIC: AUC(0-t) (ng·h/mL)
Only the number, expressed in ng·h/mL, is required.

I have this compound here, N#Cc1cnc(Nc2cc(NCC3CNCCO3)c(C(F)(F)F)cn2)cn1 (stereo not shown) [SRA737] , and I need its recorded AUC(0-t). 12900

---

# EXPERIMENT: GLP 28-day repeat oral dose toxicity and toxicokinetics, minipig
# Assay type: in vivo
# CONDITION_PARAMETERS: in vivo, po; Minipig Male; 10 mg/kg/day (HNSTD), daily dosing for 28 days
RECORDED_METRIC: half-life

Item under review: N#Cc1cnc(Nc2cc(NCC3CNCCO3)c(C(F)(F)F)cn2)cn1 (stereo not shown) [SRA737] . Reported half-life? 9.25 h

---

# EXPERIMENT: GLP 28-day repeat oral dose toxicity and toxicokinetics, mouse
# CONDITION_PARAMETERS: female, mouse, in vivo, po, 75 mg/kg/day
RECORDED_METRIC: Cmax (ng/mL)
The answer is to be given in ng/mL; state only the numeric part.

# input molecule: N#Cc1cnc(Nc2cc(NCC3CNCCO3)c(C(F)(F)F)cn2)cn1 (stereo not shown) ; wanted: its Cmax 4030

---

# EXPERIMENT: Phase 1 clinical trial, SRA737 in combination with gemcitabine dose escalation
# Format: in vivo, human
# CONDITION_PARAMETERS: human, plasma, oral, 80 mg; Day −7; mean, n = 3
RECORDED_METRIC: Cmax (ng/mL)
Quick note: give the figure in ng/mL, leave out the unit.

Find the recorded Cmax belonging to N#Cc1cnc(Nc2cc(NCC3CNCCO3)c(C(F)(F)F)cn2)cn1 (stereo not shown) and report it. 146

---

# EXPERIMENT: Phase 1 clinical trial, SRA737 in combination with gemcitabine dose escalation
# Format: in vivo, human
# CONDITION_PARAMETERS: human, plasma, oral, 600 mg; Day −7; mean, n = 4; read-out: AUC0-12
# Protocol: A Phase 1 clinical trial was conducted in ‘all corners,’ i.e. no genetic selection was performed, to establish safety, tolerability and pharmacokinetics for SRA737 administered in combination with gemcitabine (“Dose Escalation Phase”). […] At this dose, the Cmin (52 ng/mL) exceeded that determined in preclinical models to be effective. Additional cohorts are monitored escalating the dose of SRA737 until the maximum tolerated dose (MTD) is identified and to optimize combination dosing with gemcitabine. […]
RECORDED_METRIC: AUC(0-t) (ng·h/mL)
Give the value, in units of ng·h/mL, as a plain number.

Quick check: AUC(0-t) of N#Cc1cnc(Nc2cc(NCC3CNCCO3)c(C(F)(F)F)cn2)cn1 (stereo not shown) [SRA737] ? 11800

---

# EXPERIMENT: GLP 28-day repeat oral dose toxicity and toxicokinetics, minipig
# Type: in vivo
# CONDITION_PARAMETERS: in vivo, po; Minipig Female; 40 mg/kg/day, daily dosing for 28 days
RECORDED_METRIC: half-life (h)
Record the value in h, omitting the unit from your answer.

Any idea what half-life was measured for N#Cc1cnc(Nc2cc(NCC3CNCCO3)c(C(F)(F)F)cn2)cn1 (stereo not shown) [SRA737] ? 14.3

---

# EXPERIMENT: Phase 1 clinical trial, SRA737 in combination with gemcitabine dose escalation
# Assay type: in vivo, human
# CONDITION_PARAMETERS: human, plasma, oral, 300 mg; Day −7; mean, n = 7; read-out: AUC0-24
RECORDED_METRIC: AUC(0-t)
Phrase the answer as number then unit, nothing more needed.

Look up AUC(0-t): N#Cc1cnc(Nc2cc(NCC3CNCCO3)c(C(F)(F)F)cn2)cn1 (stereo not shown) 5910 ng·h/mL

---

# EXPERIMENT: Phase 1 clinical trial, SRA737 in combination with gemcitabine dose escalation
# Assay type: in vivo, human
# CONDITION_PARAMETERS: human, plasma, oral, 150 mg; Day 10; mean, n = 3; read-out: AUC0-12
RECORDED_METRIC: AUC(0-t) (ng·h/mL)
Answer format: numeric, ng·h/mL implied, no suffix.

For N#Cc1cnc(Nc2cc(NCC3CNCCO3)c(C(F)(F)F)cn2)cn1 (stereo not shown) , what is its reported AUC(0-t)? 1680

---

# EXPERIMENT: Phase 1 clinical trial, SRA737 monotherapy dose escalation
# Assay type: in vivo, human
# CONDITION_PARAMETERS: human, in vivo, 160 mg, Tmax
RECORDED_METRIC: Tmax (h)
Please reply with the bare figure in h and do not write the unit itself.

Reported Tmax for N#Cc1cnc(Nc2cc(NCC3CNCCO3)c(C(F)(F)F)cn2)cn1 (stereo not shown) : what is it? 4

---

# EXPERIMENT: SRA737 plasma and tumor concentrations in HT29 xenograft model
# Assay type: in vivo, mouse
# CONDITION_PARAMETERS: mouse, tumor, oral; HT29 xenograft mice; read-out: exposure in the tumor relative to plasma
# Experimental: For each dose, columns from left to right are concentrations for plasma at 6 hours, plasma at 24 hours, tumor at 6 hours, and tumor at 24 hours, respectively. The effect of SRA737 on Gemcitabine induced CHK1 S296 autophosphorylation was assessed as described in Walton et al. (Oncotarget. 2016 Jan. 19; 7(3): 2329-2342), herein incorporated by reference for all it teaches. […]
RECORDED_METRIC: Kp

What Kp value was documented for this compound, N#Cc1cnc(Nc2cc(NCC3CNCCO3)c(C(F)(F)F)cn2)cn1 (stereo not shown) ? > 10

---

# EXPERIMENT: Phase 1 clinical trial, SRA737 in combination with gemcitabine dose escalation
# Type: in vivo, human
# CONDITION_PARAMETERS: human, plasma, oral, 150 mg; Day 10; mean, n = 3
RECORDED_METRIC: Cmax
Remember to quote the unit after the number.

Record request: Cmax value, item N#Cc1cnc(Nc2cc(NCC3CNCCO3)c(C(F)(F)F)cn2)cn1 (stereo not shown) 331 ng/mL

---

# EXPERIMENT: Phase 1 clinical trial, SRA737 in combination with gemcitabine dose escalation
# Format: in vivo, human
# CONDITION_PARAMETERS: human, plasma, oral, 600 mg; Day −7; mean, n = 4; read-out: AUC0-24
RECORDED_METRIC: AUC(0-t) (ng·h/mL)
Numeric only. Scale: ng·h/mL

# input molecule: N#Cc1cnc(Nc2cc(NCC3CNCCO3)c(C(F)(F)F)cn2)cn1 (stereo not shown) ; wanted: its AUC(0-t) 15100

---

# EXPERIMENT: Phase 1 clinical trial, SRA737 in combination with gemcitabine dose escalation
# Assay type: in vivo, human
# CONDITION_PARAMETERS: human, plasma, oral, 150 mg; Day −7; mean, n = 4; read-out: AUC0-24
RECORDED_METRIC: AUC(0-t) (ng·h/mL)
Note: unit ng·h/mL is implicit; provide only the numeric part.

Which value of AUC(0-t) has been reported for N#Cc1cnc(Nc2cc(NCC3CNCCO3)c(C(F)(F)F)cn2)cn1 (stereo not shown) in the records? 3550

---

# EXPERIMENT: Phase 1 clinical trial, SRA737 monotherapy dose escalation
# Assay type: in vivo, human
# CONDITION_PARAMETERS: human, in vivo, 40 mg, AUC0-24
RECORDED_METRIC: AUC(0-t) (ng·h/mL)
# output: bare number, implied unit ng·h/mL

Recorded AUC(0-t) of N#Cc1cnc(Nc2cc(NCC3CNCCO3)c(C(F)(F)F)cn2)cn1 (stereo not shown) , please. 809

---

# EXPERIMENT: GLP 28-day repeat oral dose toxicity and toxicokinetics, minipig
# Assay type: in vivo
# CONDITION_PARAMETERS: in vivo, po; Minipig Male; 10 mg/kg/day (HNSTD), daily dosing for 28 days
RECORDED_METRIC: AUC(0-t) (ng·h/mL)
Give the value in ng·h/mL but do not write ng·h/mL after it.

# AUC(0-t) lookup, item N#Cc1cnc(Nc2cc(NCC3CNCCO3)c(C(F)(F)F)cn2)cn1 (stereo not shown) 6480

---

# EXPERIMENT: Phase 1 clinical trial, SRA737 in combination with gemcitabine dose escalation
# Type: in vivo, human
# CONDITION_PARAMETERS: human, plasma, oral, 600 mg; Day −7; mean, n = 4
RECORDED_METRIC: Cmax (ng/mL)
The reply should contain only the number, in ng/mL.

Can you share its Cmax? I mean this compound: N#Cc1cnc(Nc2cc(NCC3CNCCO3)c(C(F)(F)F)cn2)cn1 (stereo not shown) 2210

---

# EXPERIMENT: Single dose PK, mouse
# Assay type: in vivo
# CONDITION_PARAMETERS: in vivo; Mouse oral 10 mg/kg single dose
RECORDED_METRIC: Tmax (h)
Please give a number only; it is taken to be in h.

Quick check: Tmax of N#Cc1cnc(Nc2cc(NCC3CNCCO3)c(C(F)(F)F)cn2)cn1 (stereo not shown) ? 1
